Where do the numbers come from? From patent US8586743B2.

# measurement-notes: Hydrolysis half-life by HPLC (percent hydrolysis) at room temperature
# test-conditions: Tris buffer with NaN3, pH 8.6
property: half-life (h)
Only the number, expressed in h, is required.

// N=c1ccc2c(-c3ccc(C(=O)Oc4c(Cl)cc(S(=O)(=O)O)cc4Cl)cc3C(=O)O)c3ccc(N)c(S(=O)(=O)O)c3oc-2c1S(=O)(=O)O : half-life value = 1.58

* * *

# measurement-notes: Hydrolysis half-life by HPLC (percent hydrolysis) at room temperature
# test-conditions: DMSO
property: half-life (days)
Quick note: give the figure in days, leave out the unit.

Just so you know, measured half-life for N=c1ccc2c(-c3ccc(C(=O)Oc4c(Cl)cc(S(=O)(=O)O)cc4Cl)cc3C(=O)O)c3ccc(N)c(S(=O)(=O)O)c3oc-2c1S(=O)(=O)O came out at 16

* * *

# measurement-notes: Hydrolysis half-life by HPLC (percent hydrolysis) at room temperature
# test-conditions: Tris buffer, pH 7
property: half-life (days)

[a] N=c1ccc2c(-c3ccc(C(=O)Oc4c(F)c(F)cc(F)c4F)cc3C(=O)O)c3ccc(N)c(S(=O)(=O)O)c3oc-2c1S(=O)(=O)O [Compound 120, reference compound]
[b] N=c1ccc2c(-c3ccc(C(=O)Oc4c(Cl)cc(S(=O)(=O)O)cc4Cl)cc3C(=O)O)c3ccc(N)c(S(=O)(=O)O)c3oc-2c1S(=O)(=O)O
Of a and b , which one carries the higher reported half-life? Let me know the label of the one you choose. b

* * *

# measurement-notes: Hydrolysis half-life by HPLC (percent hydrolysis) at room temperature
# test-conditions: water
property: half-life (days)
Field: numeric (days). Do not append units.

What the record says about N=c1ccc2c(-c3ccc(C(=O)Oc4c(Cl)cc(S(=O)(=O)O)cc4Cl)cc3C(=O)O)c3ccc(N)c(S(=O)(=O)O)c3oc-2c1S(=O)(=O)O : half-life is 21

* * *

# measurement-notes: Hydrolysis half-life by HPLC (percent hydrolysis) at room temperature
# test-conditions: borate buffer, pH 8.6
property: half-life (h)
Kindly provide the numeric value in h only, without the unit symbol.

For N=c1ccc2c(-c3ccc(C(=O)Oc4c(Cl)cc(S(=O)(=O)O)cc4Cl)cc3C(=O)O)c3ccc(N)c(S(=O)(=O)O)c3oc-2c1S(=O)(=O)O the molecule record lists half-life as 3.5

* * *

# measurement-notes: Hydrolysis half-life by HPLC (percent hydrolysis) at room temperature
# test-conditions: phosphate buffer with imidazole, pH 8.6
property: half-life (min)
Please state the figure in min; there is no need to write the unit.

Memo: N=c1ccc2c(-c3ccc(C(=O)Oc4c(Cl)cc(S(=O)(=O)O)cc4Cl)cc3C(=O)O)c3ccc(N)c(S(=O)(=O)O)c3oc-2c1S(=O)(=O)O , reported half-life: 38

* * *

# measurement-notes: Hydrolysis half-life by HPLC (percent hydrolysis) at room temperature
# test-conditions: phosphate buffer, pH 8.6
property: half-life (h)

Example results:
CC1(C)C(/C=C/C=C/C=C2\N(CCCS(=O)(=O)O)c3ccc(S(=O)(=O)[O-])cc3C2(C)CCCCCC(=O)Oc2c(Cl)cc(S(=O)(=O)O)cc2Cl)=[N+](CCCS(=O)(=O)O)c2ccc(S(=O)(=O)O)cc21 (centres unmarked) :: 1.7
CC1(C)C(/C=C/C=C/C=C2\N(CCCS(=O)(=O)O)c3ccc(S(=O)(=O)[O-])cc3C2(C)CCCCCC(=O)ON2C(=O)CCC2=O)=[N+](CCCS(=O)(=O)O)c2ccc(S(=O)(=O)O)cc21 (centres unmarked) [Compound 121, reference compound] :: 1.75
N=c1ccc2c(-c3cc(C(=O)Oc4c(Cl)cc(S(=O)(=O)O)cc4Cl)ccc3C(=O)O)c3ccc(N)c(S(=O)(=O)O)c3oc-2c1S(=O)(=O)O :: 17

[a] N=c1ccc2c(-c3ccc(C(=O)Oc4c(Cl)cc(S(=O)(=O)O)cc4Cl)cc3C(=O)O)c3ccc(N)c(S(=O)(=O)O)c3oc-2c1S(=O)(=O)O
[b] N=c1ccc2c(-c3ccc(C(=O)Oc4c(F)c(F)cc(F)c4F)cc3C(=O)O)c3ccc(N)c(S(=O)(=O)O)c3oc-2c1S(=O)(=O)O [Compound 120, reference compound]
Thinking about recorded half-life values, which is higher, a or b ? Refer to your chosen entry by its label in the reply. a
(a: 28 h, b: 1.3 h)
